assayName: Acute toxicity, intravenous administration in mice
conditionDetails: mouse, in vivo
readoutType: LD50 (mg/kg)
Use mg/kg as the unit, but write only the number.

Which measured LD50 value corresponds to COC1C(O)C(N)C(OC2OC(C(C)N)=CCC2N)C(O)C1N(C)C(=O)CN (stereo not shown) ?
225
